I'd appreciate it if you could supply Vd values for the items below.
- Experiment description: Pharmacokinetic study, intravenous, rats
- Format: in vivo
- Experimental setup: rat, in vivo; male SD rats, IV 2 mg/kg; read-out: Vss
Return type: number; implicit unit L/kg.

[in] Need Vd, item COc1ccc(-c2c(Cl)ncn2-c2ccc(S(N)(=O)=O)cc2)cc1F [Cimicoxib, reference compound]
[out] 0.773

[in] And what about the compound CS(=O)(=O)c1ccc(-n2cnc(Cl)c2-c2ccccc2)nc1 [Compound 1] ?
[out] 1.16

* * *

- Experiment description: Pharmacokinetic study, intravenous, rats
- Assay type: in vivo
- Experimental setup: rat, in vivo; male SD rats, IV 2 mg/kg
I'd appreciate it if you could supply C0 values for the items below.
Return type: number; implicit unit ng/mL.

[in] Need C0, item COc1ccc(-c2c(Cl)ncn2-c2ccc(S(N)(=O)=O)cc2)cc1F [Cimicoxib, reference compound]
[out] 1980

[in] And what about the compound CS(=O)(=O)c1ccc(-n2cnc(Cl)c2-c2ccccc2)nc1 [Compound 1] ?
[out] 1700
